molecular target: E. coli-expressed recombinant human IL-13 (human, UniProt P35225 35-146); experiment: cell-based or functional assay
Sequence (P35225 other isoform, or with tags, fused parts or gaps): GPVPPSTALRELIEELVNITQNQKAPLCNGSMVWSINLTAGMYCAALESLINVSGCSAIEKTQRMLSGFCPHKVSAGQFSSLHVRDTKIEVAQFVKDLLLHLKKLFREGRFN

Binder	Mean ND50 for 2 assays
L1+A1 (antibody, human IgG1, kappa, V domains shown, Humanised 6A1, VH construct A1 and VL construct L1, human gamma1 wild type / kappa constant regions; also called A1L1; humanised anti-IL-13 mAb L1+A1) VH: QVQLVQSGAEVKKPGSSVKVSCKASGFYIKDTYMHWVRQAPGQGLEWMGTIDPANGNTKYVPKFQGRVTITADESTSTAYMELSSLRSEDTAVYYCARSIYDDYHYDDYYAMDYWGQGTLVTVSS VL: DIVMTQSPLSLPVTPGEPASISCRSSQNIVHINGNTYLEWYLQKPGQSPRLLIYKISDRFSGVPDRFSGSGSGTDFTLKISRVEADDVGIYYCFQGSHVPWTFGQGTKLEIKR	0.428 µg/mL
